- assayed target: human AT2R fused to Cb23 (Homo sapiens)
- Sequence (P50052 whole entry, looked up, the tested form may be a part): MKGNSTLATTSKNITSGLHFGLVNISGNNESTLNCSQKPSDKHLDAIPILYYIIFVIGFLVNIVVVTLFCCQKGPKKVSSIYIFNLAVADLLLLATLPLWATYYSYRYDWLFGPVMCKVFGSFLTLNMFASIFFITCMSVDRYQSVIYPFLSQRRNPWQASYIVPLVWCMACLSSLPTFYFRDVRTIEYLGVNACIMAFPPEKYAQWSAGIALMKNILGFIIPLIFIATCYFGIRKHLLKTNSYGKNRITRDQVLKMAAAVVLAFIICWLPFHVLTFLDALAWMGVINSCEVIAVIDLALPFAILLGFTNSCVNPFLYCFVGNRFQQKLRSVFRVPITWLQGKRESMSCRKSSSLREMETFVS
- run description: Radioligand binding assay, displacement of 125I-[Sar1, Ile8]-Angiotensin II, hAT2R Cb23
- experimental parameters: displacement of 125I-[Sar1, Ile8]-Angiotensin II, human AT2R fused to Cb23, HEK-293 cell membrane preparations; read-out: Binding affinity on hAT2R_Cb23 IC50
IC50 values, listed per item
measurement label: IC50 (nM)

> print(dat)
                                    compound  numeric.result
 1  CC(C)Cc1cc(F)c(-c2nn[nH]n2)c(N2CCN(C(=O)c3cccnn3)CC2)c1             389
 2  CCc1cc(C2CC2)cc(N2CCN(Cc3nc4ccccc4s3)CC2)c1-c1nn[nH]n1            2190
 3  CCc1nc2ccccc2c(=O)n1CC1CCN(c2ccccc2-c2nn[nH]n2)CC1           36200
 4  Cc1cnc(CN2CCN(c3c(-c4nn[nH]n4)ccc(CC(C)C)c3F)CC2)s1             681
 5  CCNc1cc(-c2nn[nH]n2)c(N2CCN(Cc3nc4ccccc4s3)CC2)cc1C1CC1           28800
 6  CC(C)Cc1ccc(-c2nn[nH]n2)c(N2CCN(Cc3ncccn3)CC2)c1           15500
 7  CC(C)Cc1cc(F)c(-c2nn[nH]n2)c(N2CCN(Cc3cc(C(F)(F)F)ccn3)CC2)c1             824
 8  CCCc1ccc(-c2nn[nH]n2)c(N2CCN(Cc3nc4ccccc4n3C)CC2)c1            1170
 9  Cc1ccc(CN2CCN(c3cc(CC(C)C)cc(F)c3-c3nn[nH]n3)CC2)nc1             650
10  CC(C)Cc1ccc(-c2nn[nH]n2)c(N2CCN(c3nc4ccccc4s3)CC2)c1            2340
11  CC(C)Cc1cc(F)c(-c2nn[nH]n2)c(N2CCN(Cc3cccnn3)C(C)C2)c1 (stereo not shown)              16
12  Cc1ccnc(CN2CCN(c3cc(CC(C)C)cc(F)c3-c3nn[nH]n3)CC2)c1             212
13  CC(C)Cc1ccc(-c2nn[nH]n2)c(N2CCN(Cc3cn(C)cn3)CC2)c1           40400
14  CC(C)Cc1ccc(-c2nn[nH]n2)c(C2CCN(Cc3cccnn3)C2)c1 (stereo not shown)            6890
15  c1ccc(N2CCC(Cc3nc4ccccc4s3)CC2)c(-c2nn[nH]n2)c1           16500
16  CCCCOC(=O)NS(=O)(=O)c1ccc(C(F)(F)F)cc1N1CCN(Cc2nc3ccccc3n2C)CC1            2180
17  CC(C)Cc1ccc(-c2nn[nH]n2)c(N2CCN(Cc3cc4ccccc4n(C)c3=O)CC2)c1            2910
18  CC(C)Cc1ccc(-c2nn[nH]n2)c(N2CCN(C(C)c3cccnn3)CC2)c1 (stereo not shown)             434
19  CC(C)=Cc1ccc(-c2nn[nH]n2)c(N2CCN(Cc3nc4ccccc4n3C)CC2)c1             488
20  Cc1ccc(-c2nn[nH]n2)c(N2CCN(Cc3nc4ccccc4c(=O)[nH]3)CC2)c1           35900
21  c1cnnc(CN2CCN(c3cc(C4CC4)ccc3-c3nn[nH]n3)CC2)c1           23700
22  Cc1cnc(CN2CCN(c3cc(CC(C)C)cc(F)c3-c3nn[nH]n3)CC2C)s1 (stereo not shown)            9.47
23  CCOC(=O)NS(=O)(=O)c1ccc(C(F)(F)F)cc1N1CCN(Cc2nc3ccccc3n2C)CC1            6820
24  CC(C)Cc1ccc(-c2nn[nH]n2)c(N2CC3CN(Cc4cccnn4)CC3C2)c1 (stereo not shown)            2670
25  CCS(=O)(=O)NC(=O)c1ccccc1N1CCN(Cc2nc3ccccc3s2)CC1           22800
26  CCS(=O)(=O)NC(=O)c1ccc(C2CC2)cc1N1CCN(Cc2nc3ccccc3s2)CC1             602
27  Cc1cccnc1CN1CCN(c2cc(CC(C)C)cc(F)c2-c2nn[nH]n2)CC1             155
28  CC(C)Cc1cc(F)c(-c2nn[nH]n2)c(N2CCN(Cc3ncc(F)cc3F)CC2)c1            1290
